Recorded IC50 for the following molecules
target: δ opioid receptors (Rattus norvegicus); construct: membranes prepared from whole rat brain (less cerebellum); from tissue; host or cells: whole rat brain (less cerebellum) membranes; experiment: Radioligand binding, [3H]DPDPE, brain membranes; conditions: rat brain homogenate, 1.0 nM radioligand
Sequence (P33533 whole entry): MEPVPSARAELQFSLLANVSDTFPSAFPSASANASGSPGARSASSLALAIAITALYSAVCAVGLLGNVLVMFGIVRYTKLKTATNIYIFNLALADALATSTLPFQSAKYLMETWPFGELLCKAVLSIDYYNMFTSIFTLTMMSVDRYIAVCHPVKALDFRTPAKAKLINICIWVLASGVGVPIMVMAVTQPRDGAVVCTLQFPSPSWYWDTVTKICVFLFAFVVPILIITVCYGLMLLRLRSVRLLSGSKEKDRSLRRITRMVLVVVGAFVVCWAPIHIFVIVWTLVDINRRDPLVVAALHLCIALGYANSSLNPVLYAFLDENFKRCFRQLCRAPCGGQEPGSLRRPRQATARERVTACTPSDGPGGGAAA
Measured Quantity: IC50

INSERT INTO results (molecule, observed) VALUES
  ('CC(C)C[C@H](NC(=O)[C@H](Cc1ccccc1)NC(=O)CNC(=O)CNC(=O)[C@@H](N)Cc1ccc(Br)cc1)C(=O)N[C@@H](CCCNC(=N)N)C(=O)N[C@@H](CCCNC(=N)N)C(=O)N[C@H](C)C(=O)N[C@@H](CCCNC(=N)N)C(=O)N1CCC[C@H]1C(=O)N[C@@H](CCCCN)C(N)=O [Compound 7, [p-BrPhe^1, D-Ala^8]Dyn A1-11NH2]', '1060 nM'),
  ('CC(C)C[C@@H]1NC(=O)[C@H](CCCCN)NC(=O)[C@@H]2CCCN2C(=O)[C@H](CCCNC(=N)N)NC(=O)[C@H](NC(=O)[C@H](CCCNC(=N)N)NC(=O)[C@H](CCCNC(=N)N)NC(=O)[C@H](CC(C)C)NC(=O)[C@H](Cc2ccccc2)NC(=O)CNC(=O)CNC(=O)[C@@H](N)Cc2ccc(O)cc2)CSSC[C@@H](C(N)=O)NC1=O', '104 nM'),
  ('CC(C)C[C@@H]1NC(=O)[C@H](CCCCN)NC(=O)[C@@H]2CCCN2C(=O)[C@H](CCCN=C(N)N)NC(=O)[C@@H](NC(=O)[C@H](CCCN=C(N)N)NC(=O)[C@H](CCCN=C(N)N)NC(=O)[C@H](CC(C)C)NC(=O)[C@H](Cc2ccccc2)NC(=O)CNC(=O)CNC(=O)[C@@H](N)Cc2ccc(O)cc2)CSSC[C@@H](C(N)=O)NC1=O', '3.97 nM');

====

biological target: κ opioid receptors (Cavia porcellus); construct: from tissue; host or cells: whole guinea pig brain membranes; test: Radioligand binding, inhibition of [3H]U-69593 binding to guinea pig brain membrane
Bridge positions count the residues as written; N and C are the ends. Peptide text beside a SMILES is read from it.
Recorded IC50 for the following compounds
Measured Quantity: IC50 (nM)

INSERT INTO results (compound, study_target, unit_of_measurement, observed) VALUES
  ('CC[C@H](C)[C@@H]1NC(=O)[C@H](CCCN=C(N)N)NC(=O)[C@H](CCCN=C(N)N)NC(=O)[C@@H](NC(=O)[C@H](Cc2ccccc2)NC(=O)CNC(=O)CNC(=O)[C@@H](N)Cc2ccc(O)cc2)CSSC[C@@H](C(N)=O)NC(=O)[C@@H]2CCCN2C(=O)[C@H](CCCN=C(N)N)NC1=O [Compound 1] (H-YGGFCRRIRPC-NH2; disulfide 5-11)', 'κ opioid receptors (Cavia porcellus)', 'nM', 0.39),
  ('CC[C@H](C)[C@H](NC(=O)[C@H](CCCN=C(N)N)NC(=O)[C@H](CCCN=C(N)N)NC(=O)[C@H](CC(C)C)NC(=O)[C@H](Cc1ccccc1)NC(=O)CNC(=O)CNC(=O)[C@@H](N)Cc1ccc(O)cc1)C(=O)N[C@@H](CCCN=C(N)N)C(=O)N1CCC[C@H]1C(=O)N[C@@H](CCCCN)C(=O)N[C@@H](CC(C)C)C(=O)N[C@@H](CCCCN)C(N)=O [Dyn A1-13NH2, reference compound]', 'κ opioid receptors (Cavia porcellus)', 'nM', 0.109),
  ('C[C@H]1NC(=O)[C@H](CCCNC(=N)N)NC(=O)[C@H](CCCNC(=N)N)NC(=O)[C@@H](NC(=O)[C@H](Cc2ccccc2)NC(=O)CNC(=O)CNC(=O)[C@@H](N)Cc2ccc(O)cc2)CSSC[C@@H](C(N)=O)NC(=O)[C@@H]2CCCN2C(=O)[C@H](CCCNC(=N)N)NC1=O', 'κ opioid receptors (Cavia porcellus)', 'nM', 0.28),
  ('CC[C@H](C)[C@H](NC(=O)[C@H](CCCNC(=N)N)NC(=O)[C@H](CCCNC(=N)N)NC(=O)[C@H](CC(C)C)NC(=O)[C@H](Cc1ccccc1)NC(=O)CNC(=O)CNC(=O)[C@@H](N)Cc1ccccc1)C(=O)N[C@@H](CCCNC(=N)N)C(=O)N1CCC[C@@H]1C(=O)N[C@@H](CCCCN)C(N)=O [Compound 6, [Phe^1, D-Pro^10]Dyn A1-11NH2]', 'κ opioid receptors (Cavia porcellus)', 'nM', 2.4);

====

Recorded below: IC50, system UniProt P33535.
Sequence (P33535 whole entry): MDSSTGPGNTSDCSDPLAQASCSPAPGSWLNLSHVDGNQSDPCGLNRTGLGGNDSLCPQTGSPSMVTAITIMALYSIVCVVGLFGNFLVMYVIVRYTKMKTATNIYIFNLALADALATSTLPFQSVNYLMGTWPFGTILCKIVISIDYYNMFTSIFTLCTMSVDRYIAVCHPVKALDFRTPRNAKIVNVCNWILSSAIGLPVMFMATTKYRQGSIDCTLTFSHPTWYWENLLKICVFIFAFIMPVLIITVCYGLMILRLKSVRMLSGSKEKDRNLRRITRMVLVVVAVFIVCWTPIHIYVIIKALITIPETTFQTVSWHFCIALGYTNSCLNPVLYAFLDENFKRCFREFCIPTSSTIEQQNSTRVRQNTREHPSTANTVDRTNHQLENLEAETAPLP
Bridge positions count the residues as written; N and C are the ends. Peptide text beside a SMILES is read from it.
Measured Quantity: IC50 (nM)

INSERT INTO results (molecule, observed) VALUES
  ('CC[C@H](C)[C@@H]1NC(=O)[C@H](CCCN=C(N)N)NC(=O)[C@H](CCCN=C(N)N)NC(=O)[C@@H](NC(=O)[C@H](Cc2ccccc2)NC(=O)CNC(=O)CNC(=O)[C@@H](N)Cc2ccc(O)cc2)CSSC[C@@H](C(N)=O)NC(=O)[C@@H]2CCCN2C(=O)[C@H](CCCN=C(N)N)NC1=O [Compound 1] (H-YGGFCRRIRPC-NH2; disulfide 5-11)', 2.3),
  ('CC(C)C[C@@H]1NC(=O)[C@H](CCCCN)NC(=O)[C@@H]2CCCN2C(=O)[C@H](CCCNC(=N)N)NC(=O)[C@H](NC(=O)[C@H](CCCNC(=N)N)NC(=O)[C@H](CCCNC(=N)N)NC(=O)[C@H](CC(C)C)NC(=O)[C@H](Cc2ccccc2)NC(=O)CNC(=O)CNC(=O)[C@@H](N)Cc2ccc(O)cc2)CSSC[C@@H](C(N)=O)NC1=O', 10.3),
  ('C[C@H]1NC(=O)[C@H](CCCNC(=N)N)NC(=O)[C@H](CCCNC(=N)N)NC(=O)[C@@H](NC(=O)[C@H](Cc2ccccc2)NC(=O)CNC(=O)CNC(=O)[C@@H](N)Cc2ccc(O)cc2)CSSC[C@@H](C(N)=O)NC(=O)[C@@H]2CCCN2C(=O)[C@H](CCCNC(=N)N)NC1=O', 0.27),
  ('CC[C@H](C)[C@H](NC(=O)[C@H](CCCNC(=N)N)NC(=O)[C@H](CCCNC(=N)N)NC(=O)[C@H](CC(C)C)NC(=O)[C@H](Cc1ccccc1)NC(=O)CNC(=O)CNC(=O)[C@@H](N)Cc1ccccc1)C(=O)N[C@@H](CCCNC(=N)N)C(=O)N1CCC[C@@H]1C(=O)N[C@@H](CCCCN)C(N)=O [Compound 6, [Phe^1, D-Pro^10]Dyn A1-11NH2]', 120),
  ('CC(C)C[C@H](NC(=O)[C@H](Cc1ccccc1)NC(=O)CNC(=O)CNC(=O)[C@@H](N)Cc1ccc(Br)cc1)C(=O)N[C@@H](CCCNC(=N)N)C(=O)N[C@@H](CCCNC(=N)N)C(=O)N[C@H](C)C(=O)N[C@@H](CCCNC(=N)N)C(=O)N1CCC[C@H]1C(=O)N[C@@H](CCCCN)C(N)=O [Compound 7, [p-BrPhe^1, D-Ala^8]Dyn A1-11NH2]', 47),
  ('CC(C)C[C@@H]1NC(=O)[C@H](CCCCN)NC(=O)[C@@H]2CCCN2C(=O)[C@H](CCCN=C(N)N)NC(=O)[C@@H](NC(=O)[C@H](CCCN=C(N)N)NC(=O)[C@H](CCCN=C(N)N)NC(=O)[C@H](CC(C)C)NC(=O)[C@H](Cc2ccccc2)NC(=O)CNC(=O)CNC(=O)[C@@H](N)Cc2ccc(O)cc2)CSSC[C@@H](C(N)=O)NC1=O', 0.98),
  ('CC[C@H](C)[C@H](NC(=O)[C@H](CCCN=C(N)N)NC(=O)[C@H](CCCN=C(N)N)NC(=O)[C@H](CC(C)C)NC(=O)[C@H](Cc1ccccc1)NC(=O)CNC(=O)CNC(=O)[C@@H](N)Cc1ccc(O)cc1)C(=O)N[C@@H](CCCN=C(N)N)C(=O)N1CCC[C@H]1C(=O)N[C@@H](CCCCN)C(=O)N[C@@H](CC(C)C)C(=O)N[C@@H](CCCCN)C(N)=O [Dyn A1-13NH2, reference compound]', 1.33);

====

molecular target: κ opioid receptors (Cavia porcellus, UniProt P41144); construct: from tissue; host or cells: whole guinea pig brain membranes; assay: Radioligand binding, inhibition of [3H]U-69593 binding to guinea pig brain membrane
Sequence (P41144 whole entry): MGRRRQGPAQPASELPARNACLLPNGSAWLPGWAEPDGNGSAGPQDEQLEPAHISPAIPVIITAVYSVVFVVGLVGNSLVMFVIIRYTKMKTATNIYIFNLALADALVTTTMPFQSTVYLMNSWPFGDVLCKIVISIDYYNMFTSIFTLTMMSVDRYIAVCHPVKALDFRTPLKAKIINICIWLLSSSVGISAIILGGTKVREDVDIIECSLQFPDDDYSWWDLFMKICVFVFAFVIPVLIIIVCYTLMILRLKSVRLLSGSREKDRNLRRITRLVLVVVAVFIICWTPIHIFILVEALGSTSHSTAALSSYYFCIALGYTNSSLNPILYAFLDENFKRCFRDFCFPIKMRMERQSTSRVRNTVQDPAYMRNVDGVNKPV
Measured Quantity: IC50

INSERT INTO results (molecule, measured_quantity, observed) VALUES
  ('CC(C)C[C@H](NC(=O)[C@H](Cc1ccccc1)NC(=O)CNC(=O)CNC(=O)[C@@H](N)Cc1ccc(Br)cc1)C(=O)N[C@@H](CCCNC(=N)N)C(=O)N[C@@H](CCCNC(=N)N)C(=O)N[C@H](C)C(=O)N[C@@H](CCCNC(=N)N)C(=O)N1CCC[C@H]1C(=O)N[C@@H](CCCCN)C(N)=O [Compound 7, [p-BrPhe^1, D-Ala^8]Dyn A1-11NH2]', 'IC50', '1.7 nM');
